- Test system: Hepatitis B virus
- protocol_notes: Antiviral activity against HBV infected in human HepG2(2.2.15) cells assessed as inhibition of viral DNA level
- Assay type: functional, cell-based
pIC50: −log10 of the molar value.
Returns one of 1 (yes) or 0 (no); 1 (yes) when pIC50 is >= 7.

CC(=O)[C@]1(O)CC[C@@]2(O)[C@]1(C)[C@H](OC(=O)/C=C(\C)C(C)C)C[C@@H]1[C@@]3(C)CC[C@H](O)CC3=CC[C@]12O
0 (no)
O=c1cc(-c2ccc(O)c(-c3c(O)cc4oc(-c5ccc(O)cc5)cc(=O)c4c3O)c2)oc2cc(O)cc(O)c12
0 (no)
CCOC(=O)C1=C(CN2CCOCC2)NC(c2nccs2)=NC1c1ccc(F)cc1Br (stereo unspecified)
1 (yes)
COC(=O)C1=C(CN2CCOCC2)NC(c2nccs2)=N[C@H]1c1ccc(F)cc1Br
1 (yes)

Proceed to the following item.
Query: Say whether CCOC(=O)C1=C(C)NC(c2c(F)cc(F)cc2F)=N[C@H]1c1ccc(F)cc1Cl shows pIC50 of 7 or more.
Reply: 0 (no)
